test system: SNB-75 CNS; assay: NCI tumour cell line growth inhibition, 48 h; in the data active = GI50 below about 0.43 µM; inactive = the rest
Pick from active, inactive when you respond.

Worked examples follow.
C=C1CC[C@@H]2[C@](C)(COC(C)=O)[C@H](OC(C)=O)CC[C@@]2(C)[C@@H]1CC(Sc1ccccc1)C1=CCOC1=O (stereo not given in full)    inactive
CCCCCCCCCCCCCC1=NC(C)(C)CN1C(C)C    inactive

Asked: // return assay outcome for COc1ccc(/C=C(/C(=O)N2CCN(c3ccccc3)CC2)c2cc(OC)c(OC)c(OC)c2)cc1O
Given back: active

Asked: # iterate: COc1cc2nc(-c3ccc(Cl)cc3)cc(OCCCN3CCCCC3)c2cc1OC
Given back: inactive

Asked: One more compound: Cn1nc(N)c2cc([C@@H]3Nc4ccc5[nH]ncc5c4[C@H]4C5CCC(C5)[C@@H]34)ccc21 (stereo not given in full)
Given back: active

###

system: HOP-92 NSCLC; assay: NCI tumour cell line growth inhibition, 48 h
readout.name: TGI

# example entries with known answers
c1nc(OCC2CCCCC2)c2[nH]cnc2n1    > 100 µM
[N-]=[N+]=NC12CC3C4CC5CC3C(C1)C(C5)C4C2    > 100 µM
CN(C(=O)C1=CCC2(CC1)OCCO2)c1ccccc1OS(=O)(=O)C(F)(F)F    > 100 µM
O=C(Nc1ccc(Cl)cc1F)c1ccccc1O    4.59 µM
CC1=C(C(=O)Nc2ccccc2)C(c2ccccc2)C(C(=O)Nc2ccccc2)=C(C)N1    > 100 µM

Now examine the next entry.
Asked: What does the data say about its TGI? Entry: OCC1OC(c2cccc3cc(O)c(O)cc23)CC1O (stereo unspecified)
Given back: > 100 µM

###

system: TK-10 renal; test: NCI tumour cell line growth inhibition, 48 h; in the data active = GI50 below about 0.43 µM; inactive = the rest
Choose one outcome from this list and give only that: active, inactive

Example entries begin here.
Clc1nc2ccccc2nc1CI    inactive
CCN(CC)c1ccc2c(c1)OC(N)=C(C#N)C2c1cc(OC)c2c(c1)OCO2 (configuration not stated)    active
CCOC(=O)CCCn1c(SC)nc2[nH]cc(-c3ccccc3)c2c1=O    inactive
COc1ccc(CN2C(=O)/C(=C\C(=O)c3ccc(OCCN4CCCCC4)cc3)c3ccccc32)cc1    inactive
Cn1cc(CO)c2c1C(=O)C=C(N1CC1)C2=O    active

Asked: Assay outcome for Cc1ccc(C)c(C2=C(c3cn(C)c4ccccc34)C(=O)NC2=O)c1 : what was it?
Given back: inactive

Asked: Again, but for Cc1cc(I)cc(CN(C)CCCN2CCCCCCC2)c1O
Given back: inactive

###

test system: SK-MEL-28 melanoma; assay: NCI tumour cell line growth inhibition, 48 h
readout.name: TGI

Please review the following examples before continuing.
CC(C)(C)CC(C)(C)c1cc2c(O)c(c1)Cc1cc(C(C)(C)CC(C)(C)C)cc(c1O)Cc1cc(C(C)(C)CC(C)(C)C)cc(c1O)Cc1cc(C(C)(C)CC(C)(C)C)cc(c1O)C2    > 100 µM
Cc1cc(N)c(C)c2c1[nH]c1ccc(O)cc12    > 100 µM
Cc1ccc(S(=O)(=O)N(CC(=O)O)c2ccccc2)cc1    > 100 µM

Now for the compound whose TGI we want.
Asked: Find the recorded TGI belonging to O=C(NCC(=O)N1CCCC1C(=O)OC(=O)C1CCCN1C(=O)CNC(=O)OCc1ccccc1)OCc1ccccc1 (centres undefined) and report it.
Given back: 70.4 µM

###

Recorded GI50 for the following compounds
test system: 786-0 renal; test: NCI tumour cell line growth inhibition, 48 h

# annotated cases, reported GI50 shown
C=C1C(=O)O[C@@H]2C[C@@H]1CC/C(C)=C/CC/C(C)=C/CC[C@@]2(C)O    11500 nM
N#CC(=C1C=CC(=NO)C=C1)c1ccccc1    1690 nM
CCCCCCCCCCCCCC1=NC(C)(C)CN1C(C)C    1720 nM
CCC[CH2][Sn]1([CH2]CCC)[O]N=C(c2ccccc2)C(c2ccccc2)[O]1 (stereo not drawn)    1450 nM
Clc1nc2ccccc2nc1CI    3950 nM

Asked: Return reported GI50; argument: CCCCCCNC(=O)c1cc(NCc2cc(O)ccc2O)ccc1O
Given back: 5220 nM

Asked: And for CC(C)=CCNc1ncnc2c1ncn2C1OC(CO)C(O)C1O (stereo not drawn) ?
Given back: 1370 nM

Asked: Please answer likewise for COc1ccc(CN2C(=O)/C(=C\C(=O)c3ccc(OCCN4CCCCC4)cc3)c3ccccc32)cc1
Given back: 1660 nM

Asked: Try this compound next: COc1ccc(-n2cc(-c3cc(OC)c(OC)c(OC)c3)c(C(=O)C(F)(F)F)c2C)cc1
Given back: > 100000 nM

Asked: // next record Cc1cc(I)cc(CN(C)CCCN2CCCCCCC2)c1O
Given back: 12700 nM

Asked: Please give the result for O=C(Nc1ccc(Cl)cc1F)c1ccccc1O too.
Given back: 3440 nM

Asked: Please do the same for COc1cc2nc(-c3ccc(Cl)cc3)cc(OCCCN3CCCCC3)c2cc1OC as well.
Given back: 2620 nM

Asked: Next entry: CN1CCN(CCOc2ccc(-c3cnc4c(-c5ccccc5F)cnn4c3)cc2)CC1
Given back: 1780 nM

###

TGI by entry:
system: OVCAR-8 ovarian; test: NCI tumour cell line growth inhibition, 48 h

Examples with answers:
C1C2CC3CC1CC(Nc1nc(NC45CC6CC(CC(C6)C4)C5)nc(NC45CC6CC(CC(C6)C4)C5)n1)(C2)C3    > 65.5 µM
CC(C)(Cl)C(Br)CCC(C)(Cl)C(Br)CBr (stereo unspecified)    > 100 µM
C=C1C(=O)C[C@H]2C(=C)C(=O)O[C@@H]2C2C1CC[C@@]2(C)O (stereo partly specified)    > 100 µM
COc1cc(C2CC(c3cccc(Br)c3)=NN2C(C)=O)cc(OC)c1OC (stereo unspecified)    > 46.2 µM
CCN(CC)c1ccc2c(c1)OC(N)=C(C#N)C2c1cc(OC)c2c(c1)OCO2 (stereo unspecified)    3.53 µM

Asked: For the record O=c1cnn(C/C=C/CBr)c(=O)[nH]1 , what value of TGI is listed for OVCAR-8 ovarian?
Given back: 54 µM

Asked: Follow-up item: OCC1OC(c2cccc3cc(O)c(O)cc23)CC1O (stereo unspecified)
Given back: > 100 µM

Asked: Also O=c1cc(N2CCOCC2)[nH]c(=O)n1-c1ccc(F)cc1 , if possible.
Given back: > 100 µM

Asked: What would you report for CC(C)(C)[Si](OC1CC(n2cnc3c(N)ncnc32)OC1CO)(c1ccccc1)c1ccccc1 (stereo unspecified) ?
Given back: 33.3 µM

Asked: Proceed to Nc1ncnc2c1ccn2C/C=C\CO
Given back: > 100 µM

Asked: Now consider OC[C@H]1C[C@](O)(c2ccc(Cl)cc2)[C@@H](c2ccc(Cl)cc2)O1 .
Given back: 91.7 µM

###

tested on: MOLT-4 leukemia; assay: NCI tumour cell line growth inhibition, 48 h
readout.name: TGI

Examples with answers:
FC(F)(F)c1ccc(N=C/C=C(/Nc2ccc(C(F)(F)F)cc2)c2ccc(Cl)cc2)cc1    > 100 µM
COc1cnc2c(c1)C(=O)c1c-2n(CCCNC(C)C)c(=O)c2cc(Cl)ccc12    0.452 µM
O=c1cnn(C2OC(C(O)CO)C(O)C2O)c(=O)[nH]1 (stereo not given)    > 100 µM
C=C1C(=O)C[C@H]2C(=C)C(=O)O[C@@H]2C2C1CC[C@@]2(C)O (stereo not given in full)    > 100 µM
CN(C)CCCNC(=O)c1cc2[nH]c3c(cnc4ccc([N+](=O)[O-])cc43)c(=O)c2n1C    33.9 µM

Asked: Return reported TGI; argument: COc1cc([C@H]2Oc3cc(O)c4c(=O)cc(-c5ccccc5)oc4c3O[C@@H]2CO)ccc1O
Given back: > 100 µM

Asked: OCC1OC(c2cccc3cc(O)c(O)cc23)CC1O (stereo not given) ?
Given back: > 100 µM

Asked: Lookup N#Cc1c(-c2ccc(Cl)cc2)c2c([nH]c1=O)-c1ccccc1SC2
Given back: 94.8 µM

Asked: Entry to check: OC1(C(F)(F)F)OCCN=C1C(F)(F)F (stereo not given)
Given back: > 100 µM

Asked: Follow-up entry: COc1ccc(C2COc3cc(OC(C)=O)c(OC(C)=O)cc3C2)cc1 (stereo not given)
Given back: 29.1 µM

Asked: Queued: CCCCCCCCCCCCOC1C(C(COC2OC(C3COC(C)(C)O3)C3OC(C)(C)OC23)NC(=O)Nc2ccc(C(=O)O)cc2)OC2OC(C)(C)OC21 (stereo not given)
Given back: 8.34 µM

Asked: Now give it for Nc1ccc(-c2nc3cc(F)ccc3s2)cc1Cl too.
Given back: > 100 µM

Asked: Next up: CS(=O)(=O)O[C@H]1CN2C[C@@H](O)[C@@H](O)[C@H]2[C@H]1CO
Given back: > 100 µM

Asked: And the next one, CCOC(=O)C1(C#N)C(c2ccccc2)CC(O)(c2ccc(OC)cc2)C(C(=O)c2ccc(OC)cc2)C1c1ccccc1 (stereo not given) ?
Given back: > 100 µM
